procedureSummary: Hemolytic activity in sheep erythrocytes incubated for 1 hr by absorbance based analysis
Format: toxicity, cell-based, Ovis aries, Erythrocyte
experimentalConditions: sheep erythrocytes
Documented log10 of HC50 at 1 h across a set of compounds
// do not treat as linear: log10 of HC50 at 1 h, unit µg/mL

Observe how each entry below is paired with its result.
1. CCCCCC[N+](C)(C)CCCOc1cccc(-c2cccc(OCCC[N+](C)(C)CCCCCC)c2)c1.[Br-].[Br-] ... 2.96
2. CCCCCCCCCC[N+](C)(C)CCCOc1cccc(-c2cccc(OCCC[N+](C)(C)CCCCCCCCCC)c2)c1.[Br-].[Br-] ... 1.28
3. CCCCCCCCCC[N+](C)(C)CCCOc1ccc2ccccc2c1-c1c(OCCC[N+](C)(C)CCCCCCCCCC)ccc2ccccc12.[Br-].[Br-] ... 2.36

QUERY: Identify measured log10 of HC50 at 1 h corresponding to CCCCCCCC[N+](C)(C)CCCOc1ccc(-c2ccc(OCCC[N+](C)(C)CCCCCCCC)cc2)cc1.[Br-].[Br-]
RESULT: 1.92

QUERY: Indicate the recorded log10 of HC50 at 1 h value for this compound: CCCCCCCC[N+](C)(C)CCCOc1ccc2ccccc2c1-c1c(OCCC[N+](C)(C)CCCCCCCC)ccc2ccccc12.[Br-].[Br-]
RESULT: 1.45

QUERY: Answer with the recorded log10 of HC50 at 1 h for the compound listed here: CCCCCCCC[N+](C)(C)CCCCCOc1ccc(OCCCCC[N+](C)(C)CCCCCCCC)cc1.[Br-].[Br-]
RESULT: 3.08

###

System: Escherichia coli
procedureSummary: Antimicrobial activity against Escherichia coli ATCC 25922 incubated for 16 to 20 hrs by CLSI based broth dilution method
Assay type: functional
experimentalConditions: Escherichia coli, ATCC 25922; time 16-20 hrs; read-out: MIC
attributeMeasured: MIC (µg/mL)
Express it in µg/mL; write the number only.

QUERY: Given the compound CCCCCCCCCC[N+](C)(C)CCCOc1ccccc1-c1ccccc1OCCC[N+](C)(C)CCCCCCCCCC.[Br-].[Br-] , write its reported MIC.
RESULT: 4

QUERY: Please look at this compound and report its MIC: CCCCCC[N+](C)(C)CCCOc1cccc(-c2cccc(OCCC[N+](C)(C)CCCCCC)c2)c1.[Br-].[Br-]
RESULT: 16

###

procedureSummary: Hemolytic activity in sheep erythrocytes incubated for 1 hr by absorbance based analysis
Assay type: toxicity, cell-based, Ovis aries, Erythrocyte
experimentalConditions: sheep erythrocytes
attributeMeasured: HC50 at 1 h (µg/mL)
Give your result in µg/mL as a bare value.

QUERY: Note HC50 at 1 h for the compound shown: CCCCCCCC[N+](C)(C)CCCOc1cccc(-c2cccc(OCCC[N+](C)(C)CCCCCCCC)c2)c1.[Br-].[Br-]
RESULT: 145

###

procedureSummary: Cytotoxicity against HUVEC cells assessed as inhibition of cell growth incubated for 72 hrs by CCK-8 assay
Assay type: toxicity, cell-based
experimentalConditions: human
attributeMeasured: IC50 at 72 h (µg/mL)
Please reply with the bare figure in µg/mL and do not write the unit itself.

1. CCCCCC[N+](C)(C)CCCOc1cccc(-c2cccc(OCCC[N+](C)(C)CCCCCC)c2)c1.[Br-].[Br-] ... 24.6

Lab note: next compound to report on.
QUERY: Output IC50 at 72 h of C=C[C@]1(C)C[C@@H](OC(=O)CS[C@@H]2C[C@H]3CC[C@@H](C2)N3C)[C@]2(C)[C@H](C)CC[C@]3(CCC(=O)[C@H]32)[C@@H](C)[C@@H]1O [RETAPAMULIN]
RESULT: 25.5
